- ASSAYED_SYSTEM: human Siglec-7 expressed on human cells (primary monocytes, dendritic cells, macrophages, NK cells, … (human, UniProt Q9Y286 19-467))
- Sequence (Q9Y286 19-467): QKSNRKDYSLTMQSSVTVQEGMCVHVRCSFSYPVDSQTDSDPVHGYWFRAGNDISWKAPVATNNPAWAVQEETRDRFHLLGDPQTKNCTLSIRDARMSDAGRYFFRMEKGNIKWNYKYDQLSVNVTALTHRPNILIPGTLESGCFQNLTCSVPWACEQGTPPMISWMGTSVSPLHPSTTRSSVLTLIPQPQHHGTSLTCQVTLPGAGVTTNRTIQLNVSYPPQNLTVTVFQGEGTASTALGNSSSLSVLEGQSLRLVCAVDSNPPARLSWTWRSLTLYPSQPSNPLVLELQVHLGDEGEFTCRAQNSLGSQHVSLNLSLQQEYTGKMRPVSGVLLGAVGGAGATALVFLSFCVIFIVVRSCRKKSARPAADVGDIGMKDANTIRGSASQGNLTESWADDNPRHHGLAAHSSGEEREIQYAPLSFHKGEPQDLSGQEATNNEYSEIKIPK
- PROCEDURE_TEXT: cell-based or functional assay
READOUT: Percent Siglec-7 Surface Expression, NK cells (%)
Report the value in % with no unit label.

Worked set:
{"columns": ["BINDER", "OBS_VALUE"],
 "data": [
  ["anti-Siglec-7 antibody 4E3 (antibody, V domains shown, VL FR1 there holds a Z); also called S7-4E3; mAb S7-4E3) VH: EVQLVESGGALVKPGGSLKISCAVSGFIFSNYDMSWVRQNPEKRLEWVATISSGGGYTYYPDSVKGRFTISRDNAKNALYLQMSSLRSEDTALYYCTRHGYGNYDWYFDVWGAGATVTVSS VL: QIVLTQSPAILSASPGEKVTMTCSANSSFTYMYWYQQKPGSSPRLLIFDTSNLASGVPIRFSGSGSGTSYSLTISRMEAEDTATYYCQQWSSSPLTFGAGTKLELK", 31.2],
  ["anti-Siglec-7 antibody 7E11 (antibody, V domains shown, Variable domains assembled from FR and CDR entries) VH: QVQLKQSGPVLVAPSQSLSITCTVSGFSLSNYGVHWVRQFPGKGLEWLGVIWAGGITNYNSVLMSRLSISKDNSKSQVFLKMNSLQTDDTAMYYCAKQGGTSFSYWGQGTLVTVSA VL: DIQMTQSPASQSASLGESVTITCLASQTIGTWLAWYQQKPGKSPQLLIYAATSLADGVPSRFSGSGSGTKFSFKISSLQAEDFVSYYCQQLYSTPYTFGGGTKLEIK", 50.7],
  ["anti-Siglec-7 antibody 10B5 (antibody, V domains shown, that light chain holds several Z and differs in its CDRs from S7-10B5.1 / 10B5L1; also called S7-10B5; mAb S7-10B5) VH: QVHLQQSGPELVKPGASVKISCKASGYAFTNCWMNWVRQRPGKGLDWIGRIFPGNGHTNYSGKFKDKATLTEDKSSSTAYMQLSSLTSEDSAVYFCARDYSDYYFDYWGQGTTLTVSS VL: DVQMTQTTSSLSASLGDRVTISCRASQDINTYLNWYQQKPDGTVKLLIYYTSRLHSGVPSRFSGSGSGTDYSLTISNLEQEDIATYFCQQGNTLPWTFGGGTKLEIK", 25.5],
  ["anti-Siglec-7 antibody 10G8 (antibody, V domains shown, Variable domains assembled from FR and CDR entries) VH: EVKLVEFGGALVKPGGSLKLSCAALGFTFSTYAMFRVRQTPEKREEGVASISSGGRYTYYPDSAKDRHPIFRDNARNTLYLQMSSLRSKDTAMYYCVRHSYGSSYWYLDVWGAGTTVTVSS VL: DIQMTQFPATLSGTPGDRVZLSRRASQSIREYLHWYQQKSHESPRLZIKFASQSICGIPSRFSGSGSGSDFTLSINTVEPEDVGVYYCQKAHNFPYTFGGGTKLEIK", 74.7]
]}

Shift focus to the following entry.
Query string: Specify Percent Siglec-7 Surface Expression, NK cells for anti-Siglec-7 antibody 1A12 (antibody, V domains shown, also called 1Al2) VH: QVQLQQSGSELRSPGSSVKLSCKDFDSEVFPITYMNWVRQKPGHGFEWIGDILPSIGRTMYGEKFEDKATLDADTVSNTAYLELNSLTSEDSAIYYCARSEGYLLAYWGQGTLVTVSA VL: DVZMTQTPLSLPVSLGDQASISCRSSQSLVHSTGNTYLHWYLQKPGQSPKLLIYKVSNRFSGVPDRFSGSGAGTDFTLKISRVEAEDLGVYFCSQNTHVPYTFGGGTKLEIK and stop.
Result string: 136
